- System: PPARa:RXRa (NR concentration 270 nM, RXRa partner concentration 90 nM)
- testDescription: PBM binding z-score (relative to random genomic background probes); higher = stronger binding; sequences stand for … in GC…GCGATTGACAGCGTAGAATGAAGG
quantityMeasured: PBM binding z-score

Below are some sequences; for each one, tell me its PBM binding z-score.
1. CCTGCTAGGTCCTGGTCAGCTAATCTACAGTATG
2. TCTAGTAGATCAGCAGGTTAAGAAAGCTGGCCAA

Key:
1. -0.283
2. 0.734

List reported PBM binding z-score for each of these sequences:
1. CCTACTGGGCCATTCAGAGGTCATTGACCATATG
2. TTACCAAGGCGAGCTGAGGTCGTTGATCCAACTC
3. TCTCGGTGGACACGAAAGGTCAGAGCTCGACATC
4. TGATATAGGTAAACAGGTGAAAGTCCGTAAGTTA
5. GATAGCAGGCCATTTGGGTCACTCAATGACGGGC
6. TCAAATAGGTAAATGCTAGGTGAAAGTCCGATCT

Key:
1. 3.86
2. 0.95
3. 3.69
4. 2.37
5. 1.73
6. 1.52

Give PBM binding z-score for each listed item.
1. GCTAGCAGGCCATTTGGGCCACTCAATGACGGGC
2. TCTCGGAGGACACCAAGGTCAGAGCTTTCCAGAG
3. GGAACGAGGGCATTCTAGTTGATAGCATGGCGAT
4. GCGACTGGGGCAACAGCAGGTTACCATAACTTAA
5. ACTCAAAGTTCAGGACGAGGTAACGTAAAGCACG
6. GCTGCTAGGTCAACTTATGGTCAGCTAAAGCTCG

Key:
1. -0.573
2. 1.86
3. 1.21
4. 1.25
5. 3.27
6. 3.87

====

- Test system: RXRa DBDmut IVT, anti-RXR (DBD mutation: RXRa K156A/R161A, NR concentration 90 nM)
- testDescription: PBM binding z-score (relative to random genomic background probes); higher = stronger binding; sequences stand for … in GC…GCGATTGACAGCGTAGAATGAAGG
Please provide measured PBM binding z-score for the entries that follow.
Answers are plain numbers.

Recorded results for 10 sequences are shown here.
CGTCAAAGTTGAAGGTAACGTAACAGAAAGCAGC: 0.128
CCTGCTAGGTCAACGGTCAGCTAAAGCAGCTCGC: 2.02
CGTCCAAGTTCAGCAGGTCAGTGAAAGCGACGTG: 3.67
CATACTAGGTCACAGAGGTCAAAGTCCGTGCGTA: 3.27
CCGAGTGGGGCAGAAAGGTTACCATACCATCCGG: -0.568
ACTAGTTGATCAGCTGAGGTCACACACAATTCGG: 1.75
AACTCTAGGTAACCAAGTTCAGTGAATGCCGAAC: 0.853
GCAGACAGGTTAAACGCAGGTAACTCAGGGTGGC: -0.0571
TAGCCTAGGTCATGCGGGCCTGTATAGTGTCGGC: 0.686
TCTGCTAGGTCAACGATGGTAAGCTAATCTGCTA: 0.819

Look at each sequence and report its PBM binding z-score.
1. CGAACTAGGTCATTGACAAGACAGTGAATAGTAA
2. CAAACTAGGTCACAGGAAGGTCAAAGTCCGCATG

Key:
1. 1.81
2. 2.17

====

- System: RARa homodimer (NR concentration 270 nM)
- testDescription: PBM binding z-score (relative to random genomic background probes); higher = stronger binding; sequences stand for … in GC…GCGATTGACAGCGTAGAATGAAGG
quantityMeasured: PBM binding z-score
Give bare numbers.

ATCTCTAGGTAAAGTTCAGAGAAAGATCGATAGA: 1.48

List the reported PBM binding z-score of each sequence below.
1. GATACAGGGTCAAGGCCAGCGTACGCGTATTGAT
2. ATCTCTAGGTAAAGATACTTCAGTGAATGCAAAT
3. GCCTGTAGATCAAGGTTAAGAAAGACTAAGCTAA
4. CCTTACGGGGCACTGACAGGTTATAGCATTTGGA
5. TAGCCTAGGTCCTGCGGGCCAGTATAGTGTCGGC
6. CAAACTAGGTCACGAAAGATCAAAGTCGAATGAC
7. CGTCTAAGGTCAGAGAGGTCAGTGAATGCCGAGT
8. CGAACTATGTCAGAACAGGACAGTGAAGGATGAT

Key:
1: 1.03; 2: 0.591; 3: -1.02; 4: 0.0601; 5: -1.52; 6: 1.08; 7: 1.28; 8: 0.625

Go through the items and report each one's PBM binding z-score.
1. TCTGCTAGGTCAACGATTGTCAGCTAATCTGCTA
2. TAGCCTAGGTCAGATCGGGCAAGTATACGCTATA
3. TAGCCTAGGTCATGGGGCAGTATACCACGCGAAC
4. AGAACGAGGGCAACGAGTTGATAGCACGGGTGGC
5. GGAACGAGGGCAAGTTAATAGCAGAGTTTGATGG
6. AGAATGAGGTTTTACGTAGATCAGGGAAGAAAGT
7. AGAACGAGGGCAATGAGTGGATAGCACGGGTGGC

Key:
1. -1.01
2. -0.377
3. -0.03
4. -0.868
5. -0.189
6. 0.0667
7. 0.296

For every item in the list below, what is its measured PBM binding z-score?
1. ATTGAAAGGTCGACGAGGTGAGTATACACCGTTT
2. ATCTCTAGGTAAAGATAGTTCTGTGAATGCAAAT
3. AGTACAGGGTCACTAGGCCAGAGTAGGTACGAAT
4. CGAACGAGGGCATGGGTTGATAGCAAATGCCGAT
5. TGTCAAAGTTTAAAGGTAACGTAAGTATCCACAC
6. ATCTCTAGGTAACAAGTTCAGTGATAGAGAGGAC
7. CAAACTAGGTCACCGGAAGGTCAATGTCCGCATG
8. CCGACTGGGACATAAGGTTACCATAAGCCAGCCC

Key:
1. 0.685
2. 0.978
3. 0.585
4. -0.224
5. 0.576
6. 1.13
7. 1.41
8. -0.0116

For every listed record, write down its PBM binding z-score.
1. ACTATTAGTTGAGACGAGGGCACCCGATAGGTTG
2. AGATTGAGGTTAAGATCAGGGAAACAGAATACAT

Key:
1. 0.511
2. 1.33

Dear colleague, could you send me PBM binding z-score for each of the items below? Thanks.
1. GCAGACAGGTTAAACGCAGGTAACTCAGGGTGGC
2. TCATATAGGCAAACAGGTGAAAGTCCGTAAGTTA
3. CGAACTAGGTCAGAACATGACAGTGAAGGATGAT
4. AGAACGAGGGCACGCTGAGTTGATGGCAGAGTAG
5. TCTATTAGTTGATTAGGGCAACTGAAACAGCGGA
6. AGTCAAAGTTCATGACGAGGTAACGTAAAGCACG

Key:
1. -0.374
2. 0.994
3. 0.0136
4. -0.371
5. 0.703
6. 0.824

Record PBM binding z-score per entry; entries follow.
1. CCTACTGGGCCATCGGGTCATTGATATCAACGTT
2. CGACCAAGGTCAAAGGTCAGTGAAGAGATGACGG
3. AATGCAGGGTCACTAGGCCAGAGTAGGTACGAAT
4. TCTTGTAGATCAATAGTGGTTAAGAAAGTGCGCT
5. GCAGACAGGTGAAACGCAAGTAACTCAGGGTGGC
6. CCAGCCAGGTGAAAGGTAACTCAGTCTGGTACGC

Key:
-0.279
2.47
0.109
0.947
-0.461
-0.603

Need PBM binding z-score for each of these sequences.
1. CGAACTGGGTCAGAACAGGACAGTGAAGGATGAT
2. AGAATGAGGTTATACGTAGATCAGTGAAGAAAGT
3. GATACAGGGTCAGCCAGAGGCCAGAGTATGGAAA
4. TAGCCTAGGTCATGTGCCAGTATACCACGCGAAC
5. CCTAGCAGGCCAATCTGGGTCACTTAAGGCTTGA

Key:
1. 0.0168
2. 0.81
3. 0.402
4. -0.178
5. -0.727

For each listed entry, give its PBM binding z-score.
1. CCTACTGGGCCAAAAAGGTCATTGTTGCCGATAA
2. CGTCCAAGGTCATAGGAGGTCAGCGAAGACAGAT
3. ACTATTAGTTGACTTAGGACAACCGATACGACGC
4. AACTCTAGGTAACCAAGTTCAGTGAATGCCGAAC
5. CCTACTAGGCCATCAGGTCATTGATATCAACGTT

Key:
[0.787, 2.5, 0.875, 0.354, 1.47]
